Provenance of the data: the supplement of paper PMC10567573

B1: SNAP91 (parent)
chain: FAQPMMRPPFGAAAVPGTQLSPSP

# Variants of: B1
# Protocol details: protein stability index of a GFP-peptide fusion (GPS, HEK-293T) (PSI 1-6); higher = more stable;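 further: lentivirally expressed fusions sorted by FACS into six bins by GFP to DsRed ratio, PSI derived from sequencing read proportions per bin multiplied by bin number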
# Study conditions: c terminus: a fixed tail appended
Catalogue of protein stability index values
Result type: protein stability index

| Alteration | Result value |
| --- | --- |
| G17I | 2.88 |
| P22Y | 3.49 |
| P9E | 3.94 |
| M5F | 2.54 |
| F1T | 4.53 |
| S23L | 2.1 |
| G11D | 3.7 |
| P4A | 2.05 |
| S23H | 2.96 |
| A13S | 3.25 |
| M6Y | 2.88 |
| V15D | 2.73 |
| G11T | 3.44 |
| F10M | 4.12 |
| A13F | 3.13 |
| F1I | 4.02 |
| A12N | 3.54 |
| P22A | 3.28 |
| P8S | 2.96 |
| P9F | 1.63 |
| P8K | 2.97 |
| L20R | 3.51 |
